Where do these numbers come from? They come from ChEMBL document CHEMBL3351281.

Test system: HEL
assay info: Antiproliferative activity against human HEL cells after 48 hrs by Cell Titer GLo Assay
Assay type: functional, cell-based
measured attribute: IC50 (µM)

{"substance smiles": "Nc1ccccc1NC(=O)c1ccc(Cc2nnc(Cc3cccc4ccccc34)o2)cc1", "system tested": "HEL", "numeric result": 2}
{"substance smiles": "O=C(/C=C/c1ccc(Cc2nnc(Cc3cccc4ccccc34)o2)cc1)NO", "system tested": "HEL", "numeric result": 4.1}

###

pIC50: recorded values
system tested: UniProtKB Q9UBN7
Sequence (Q9UBN7 whole entry): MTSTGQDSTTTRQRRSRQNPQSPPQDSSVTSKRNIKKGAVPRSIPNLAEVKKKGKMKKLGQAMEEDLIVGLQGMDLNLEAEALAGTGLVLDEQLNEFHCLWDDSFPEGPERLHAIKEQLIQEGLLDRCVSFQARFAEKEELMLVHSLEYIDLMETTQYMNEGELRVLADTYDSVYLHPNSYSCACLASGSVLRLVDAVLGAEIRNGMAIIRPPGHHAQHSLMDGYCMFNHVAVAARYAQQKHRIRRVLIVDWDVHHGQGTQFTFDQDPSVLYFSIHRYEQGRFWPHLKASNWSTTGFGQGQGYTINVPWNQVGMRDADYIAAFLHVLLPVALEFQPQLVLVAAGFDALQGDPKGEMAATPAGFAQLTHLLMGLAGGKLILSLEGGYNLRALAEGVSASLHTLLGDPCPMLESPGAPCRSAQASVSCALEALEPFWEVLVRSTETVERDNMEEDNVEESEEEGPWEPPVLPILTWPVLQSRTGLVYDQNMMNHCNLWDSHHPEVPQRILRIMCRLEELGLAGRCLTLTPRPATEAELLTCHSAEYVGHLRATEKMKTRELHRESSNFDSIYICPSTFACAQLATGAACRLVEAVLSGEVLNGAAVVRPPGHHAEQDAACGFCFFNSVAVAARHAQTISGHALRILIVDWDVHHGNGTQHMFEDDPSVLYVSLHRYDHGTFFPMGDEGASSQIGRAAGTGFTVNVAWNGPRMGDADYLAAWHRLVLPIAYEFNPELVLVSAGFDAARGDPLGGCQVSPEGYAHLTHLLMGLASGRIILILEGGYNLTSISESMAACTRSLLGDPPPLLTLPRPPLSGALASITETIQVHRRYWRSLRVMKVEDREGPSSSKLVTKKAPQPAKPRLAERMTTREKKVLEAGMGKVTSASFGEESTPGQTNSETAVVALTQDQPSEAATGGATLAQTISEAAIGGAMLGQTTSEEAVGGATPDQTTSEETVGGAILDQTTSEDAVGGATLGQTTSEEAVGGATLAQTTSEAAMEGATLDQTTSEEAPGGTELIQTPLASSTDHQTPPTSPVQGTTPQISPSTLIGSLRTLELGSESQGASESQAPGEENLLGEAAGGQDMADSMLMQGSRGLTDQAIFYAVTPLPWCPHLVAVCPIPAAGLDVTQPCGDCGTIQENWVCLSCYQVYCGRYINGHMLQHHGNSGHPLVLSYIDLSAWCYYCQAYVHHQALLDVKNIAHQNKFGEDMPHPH
assay info: Inhibition of human recombinant HDAC6 pre-incubated at room temperature for 15 min before substrate addition by fluorimetric assay
pIC50: −log10 of the molar value.
measured attribute: pIC50

{"substance smiles": "Nc1ccccc1NC(=O)/C=C/c1ccc(-c2nnc(Cc3cccc4ccccc34)o2)cc1", "system tested": "UniProtKB Q9UBN7", "measured attribute": "pIC50", "value prefix": "<", "numeric result": 4.70}
{"substance smiles": "Nc1ccccc1NC(=O)/C=C/c1ccc(-c2nnc(Cc3ccc4ccccc4c3)o2)cc1", "system tested": "UniProtKB Q9UBN7", "measured attribute": "pIC50", "value prefix": "<", "numeric result": 4.70}
{"substance smiles": "O=C(/C=C/c1ccc(-c2nnc(Cc3c[nH]c4ccccc34)o2)cc1)NO", "system tested": "UniProtKB Q9UBN7", "measured attribute": "pIC50", "value prefix": "=", "numeric result": 7.52}
{"substance smiles": "Nc1ccccc1NC(=O)/C=C/c1ccc(-c2nnc(Cc3c[nH]c4ccccc34)o2)cc1", "system tested": "UniProtKB Q9UBN7", "measured attribute": "pIC50", "value prefix": "<", "numeric result": 4.70}
{"substance smiles": "O=C(NO)c1ccc(Cc2nnc(Cc3cccc4ccccc34)o2)cc1", "system tested": "UniProtKB Q9UBN7", "measured attribute": "pIC50", "value prefix": "=", "numeric result": 5.92}
{"substance smiles": "Nc1ccccc1NC(=O)c1ccc(Cc2nnc(Cc3cccc4ccccc34)o2)cc1", "system tested": "UniProtKB Q9UBN7", "measured attribute": "pIC50", "value prefix": "=", "numeric result": 5.05}
{"substance smiles": "Nc1ccccc1NC(=O)/C=C/c1ccc(Cc2nnc(Cc3cccc4ccccc34)o2)cc1", "system tested": "UniProtKB Q9UBN7", "measured attribute": "pIC50", "value prefix": "<", "numeric result": 4.70}
{"substance smiles": "Nc1ccccc1NC(=O)c1ccc(-c2nnc(Cc3cccc4ccccc34)o2)cc1", "system tested": "UniProtKB Q9UBN7", "measured attribute": "pIC50", "value prefix": "=", "numeric result": 4.79}
{"substance smiles": "O=C(/C=C/c1ccc(-c2nnc(Cc3cccc4ccccc34)o2)cc1)NO", "system tested": "UniProtKB Q9UBN7", "measured attribute": "pIC50", "value prefix": "=", "numeric result": 7.22}
{"substance smiles": "O=C(NO)c1ccc(-c2nnc(Cc3cccc4ccccc34)o2)cc1", "system tested": "UniProtKB Q9UBN7", "measured attribute": "pIC50", "value prefix": "=", "numeric result": 5.39}
{"substance smiles": "O=C(/C=C/c1ccc(Cc2nnc(Cc3cccc4ccccc34)o2)cc1)NO", "system tested": "UniProtKB Q9UBN7", "measured attribute": "pIC50", "value prefix": "=", "numeric result": 7.52}
